# test_target: UniProtKB B4URF0
# Sequence (B4URF0 whole entry): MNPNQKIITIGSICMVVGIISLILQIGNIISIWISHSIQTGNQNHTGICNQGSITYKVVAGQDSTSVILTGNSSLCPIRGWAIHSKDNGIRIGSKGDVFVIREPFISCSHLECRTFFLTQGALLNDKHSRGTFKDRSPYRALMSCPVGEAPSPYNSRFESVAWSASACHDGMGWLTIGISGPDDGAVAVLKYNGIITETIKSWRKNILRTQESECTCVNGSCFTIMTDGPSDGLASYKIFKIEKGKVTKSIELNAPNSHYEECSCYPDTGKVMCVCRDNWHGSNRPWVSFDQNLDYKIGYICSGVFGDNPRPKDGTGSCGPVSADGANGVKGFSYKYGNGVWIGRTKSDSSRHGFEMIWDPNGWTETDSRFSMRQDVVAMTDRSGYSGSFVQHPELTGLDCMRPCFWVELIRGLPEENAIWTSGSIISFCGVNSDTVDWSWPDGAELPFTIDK
pIC50: −log10 of the molar value.
Kindly return 1 if reported pIC50 is no lower than 6; return 0 if it is lower.

• CC(C)(C)NC(=O)NC(=S)NC(=O)COc1ccc(Cl)cc1Cl = 0
• CCOc1cc(C)nc(NC(=S)NC(=O)c2ccc(-c3ccccc3Cl)o2)n1 = 0
• COc1cc(C)nc(NC(=S)NC(=O)c2ccc(Cl)nc2)n1 = 0
• CCOc1cc(OCC)nc(NC(=S)NC(=O)C(c2ccc(Cl)cc2)C(C)C)n1 (stereo not given) = 1
• Cc1cc(O)nc(NC(=S)NC(=O)c2ccc(-c3ccccc3Cl)o2)n1 = 1
• COc1cc(C)nc(NC(=S)NC(=O)c2ccc(-c3ccccc3Cl)o2)n1 = 0
• O=C(NC(=S)Nc1nc(Cl)cc(Cl)n1)c1ccc(-c2ccccc2Cl)o1 = 0
• CCOc1cc(OCC)nc(NC(=S)NC(=O)c2ccc(-c3ccccc3Cl)o2)n1 = 1
